STUDY_SYSTEM: Aurora kinase B (Homo sapiens, UniProt Q96GD4)
Sequence (Q96GD4 whole entry): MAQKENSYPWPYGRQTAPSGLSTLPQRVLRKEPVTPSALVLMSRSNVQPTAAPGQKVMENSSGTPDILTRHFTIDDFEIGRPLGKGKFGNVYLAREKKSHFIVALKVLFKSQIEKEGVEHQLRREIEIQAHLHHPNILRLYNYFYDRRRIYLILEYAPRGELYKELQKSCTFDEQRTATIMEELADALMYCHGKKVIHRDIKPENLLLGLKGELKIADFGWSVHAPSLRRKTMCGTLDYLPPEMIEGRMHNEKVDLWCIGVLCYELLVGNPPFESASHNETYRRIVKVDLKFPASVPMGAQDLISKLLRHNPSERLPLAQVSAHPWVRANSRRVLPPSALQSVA
RUN_PARAMETERS: NCI-H1229
ASSAY_READOUT: EC15

• CNC(=O)/C=C/c1cnc(N)c2c(-c3ccc(NC(=O)Nc4cccc(C)c4)cc3)csc12 = 0.087 µM
• Cc1cccc(NC(=O)Nc2ccc(-c3csc4c(C#CCN(C)C)cnc(N)c34)cc2)c1 = 0.141 µM
• Cc1ccccc1NC(=O)Nc1ccc(-c2csc3c(-c4cnn(C)c4)cnc(N)c23)cc1 = 0.002 µM

====

Reported values of clearance for individual entries
TEST_DETAILS: Clearance in CD1 (ICR) mouse at 3 mg/kg, iv
Type: ADME, organism-based
Design: dose 3 mg/kg, route intravenous
RUN_PARAMETERS: in vivo
ASSAY_READOUT: clearance (mL/min/kg)

• Cn1cc(-c2cnc(N)c3c(-c4ccc(NC(=O)Nc5cccc(F)c5)cc4)csc23)cn1 = 3.33
• CCCn1cc(-c2cnc(N)c3c(-c4ccc(NC(=O)Nc5cccc(F)c5)cc4)csc23)cn1 = 16.7
• Cc1cccc(NC(=O)Nc2ccc(-c3csc4ccnc(N)c34)cc2)c1 = 66.7
• Nc1ncc(-c2cnn(CCO)c2)c2scc(-c3ccc(NC(=O)Nc4cccc(F)c4)cc3)c12 = 5
• C[C@@H](O)Cn1cc(-c2cnc(N)c3c(-c4ccc(NC(=O)Nc5cccc(F)c5)cc4)csc23)cn1 = 5
• Cc1cccc(NC(=O)Nc2ccc(-c3csc4c(-c5cnn(C)c5)cnc(N)c34)cc2)c1 = 18.3
• COc1ccc(NC(=O)Nc2ccc(-c3csc4c(-c5cnn(C)c5)cnc(N)c34)cc2)cc1 = 15

====

TEST_DETAILS: Protein binding in dog
Format: ADME, organism-based, Canis lupus familiaris
RUN_PARAMETERS: plasma, read-out: PB
ASSAY_READOUT: fraction unbound

* Nc1ncc(-c2cnn(CCO)c2)c2scc(-c3ccc(NC(=O)Nc4cccc(F)c4)cc3)c12 | < 0.01

====

STUDY_SYSTEM: Aurora kinase B (Homo sapiens, UniProt Q96GD4)
RUN_PARAMETERS: NCI-H1229
ASSAY_READOUT: log10(EC15) (log10 of the value in nM)

• CN1CCC(n2cc(-c3cnc(N)c4c(-c5ccc(NC(=O)Nc6cccc(F)c6)cc5)csc34)cn2)C1=O (centres undefined) = 0.00
• CS(=O)(=O)CCn1cc(-c2cnc(N)c3c(-c4ccc(NC(=O)Nc5cccc(F)c5)cc4)csc23)cn1 = 0.60
• CCCn1cc(-c2cnc(N)c3c(-c4ccc(NC(=O)Nc5cccc(F)c5)cc4)csc23)cn1 = 0.60
• Cn1cc(-c2cnc(N)c3c(-c4ccc(NC(=O)Nc5cccc(Cl)c5)cc4)csc23)cn1 = 1.26
• CC(C)Cn1cc(-c2cnc(N)c3c(-c4ccc(NC(=O)Nc5cccc(F)c5)cc4)csc23)cn1 = 2.55
• Cc1cccc(NC(=O)Nc2ccc(-c3csc4c(-c5cn[nH]c5)cnc(N)c34)cc2)c1 = 1.49
• COc1ccc(NC(=O)Nc2ccc(-c3csc4c(-c5cnn(C)c5)cnc(N)c34)cc2)cc1 = 1.76

====

STUDY_SYSTEM: Aurora kinase B (Homo sapiens)
RUN_PARAMETERS: NCI-H1229
ASSAY_READOUT: EC15 (nM)

* Cn1cc(-c2cnc(N)c3c(-c4ccc(NC(=O)Nc5ccc(Cl)cc5)cc4)csc23)cn1 | 27
* Cc1cccc(NC(=O)Nc2ccc(-c3csc4c(-c5cc[nH]n5)cnc(N)c34)cc2)c1 | 161
* Cc1cccc(NC(=O)Nc2ccc(-c3csc4ccnc(N)c34)cc2)c1 | 4140
* C[C@@H](O)Cn1cc(-c2cnc(N)c3c(-c4ccc(NC(=O)Nc5cccc(F)c5)cc4)csc23)cn1 | 2
* Cn1cc(-c2cnc(N)c3c(-c4ccc(NC(=O)Nc5cccc(F)c5)cc4)csc23)cn1 | 6
* Cc1cccc(NC(=O)Nc2ccc(-c3csc4c(-c5cc[nH]c5)cnc(N)c34)cc2)c1 | 389
* CNC(=O)c1cnc(N)c2c(-c3ccc(NC(=O)Nc4cccc(C)c4)cc3)csc12 | 46
* Cc1cccc(NC(=O)Nc2ccc(-c3csc4c(-c5cnn(C)c5)cnc(N)c34)cc2)c1 | 55
